tested on: BMP4 induced Smad1/5/8 phosphorylation in C2C12 cells; experiment: BMP4 induced Smad1/5/8 phosphorylation, Western blot; type: cell-based; conditions: Mus musculus, C2C12, read-out: apparent IC50, Smad1/5/8 phosphorylation
Measured property: pIC50
# pIC50: negative log10 of molar concentration; output just the value

# lookup: BMP4 induced Smad1/5/8 phosphorylation in C2C12 cells pIC50, key = c1ccc2c(-c3cnn4cc(-c5ccc(N6CCNCC6)cc5)cnc34)ccnc2c1
8.00

----------
tested on: BMP4 response (BRE-luciferase) in C2C12 cells; assay: BRE-luciferase reporter assay; assay type: cell-based; conditions: Mus musculus, C2C12, read-out: IC50, BRE-luciferase
Measured property: pIC50
# pIC50: negative log10 of molar concentration; output just the value

Answer with reported pIC50 of c1ccc2c(-c3cnn4cc(-c5ccc(N6CCNCC6)cc5)cnc34)ccnc2c1 [LDN-193189]
8.00

----------
Measured property: pIC50
# pIC50: negative log10 of molar concentration; output just the value

# lookup: UniProtKB P36896 pIC50, key = COc1cc(-c2cc(-c3cccc(O)c3)cnc2N)cc(OC)c1OC
# Sequence (P36896 24-505): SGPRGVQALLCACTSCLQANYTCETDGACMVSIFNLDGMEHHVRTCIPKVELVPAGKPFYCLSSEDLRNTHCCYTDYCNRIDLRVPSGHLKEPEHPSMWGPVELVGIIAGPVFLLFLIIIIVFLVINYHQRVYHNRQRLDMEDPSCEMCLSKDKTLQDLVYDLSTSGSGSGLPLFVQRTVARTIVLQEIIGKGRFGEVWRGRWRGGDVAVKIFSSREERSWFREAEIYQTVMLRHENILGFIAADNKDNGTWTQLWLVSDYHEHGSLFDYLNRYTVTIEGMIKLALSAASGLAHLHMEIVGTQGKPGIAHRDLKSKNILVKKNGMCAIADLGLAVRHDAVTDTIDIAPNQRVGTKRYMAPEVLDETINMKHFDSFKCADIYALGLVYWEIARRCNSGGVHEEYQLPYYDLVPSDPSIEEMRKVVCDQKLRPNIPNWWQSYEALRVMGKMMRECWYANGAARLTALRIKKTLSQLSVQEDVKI
6.52
